Where do these numbers come from? They come from the RNAGym collection of RNA variant scans (doi:10.1021/acssynbio.7b00057).

B1: Pistol ribozyme (parent)
chain: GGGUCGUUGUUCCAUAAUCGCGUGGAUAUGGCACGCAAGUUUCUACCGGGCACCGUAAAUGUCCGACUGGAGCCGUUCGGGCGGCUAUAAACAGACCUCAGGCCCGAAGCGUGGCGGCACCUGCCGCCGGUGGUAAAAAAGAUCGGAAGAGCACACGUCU

# Variants of: B1
# method: aptazyme ON/OFF ratio, guanine; higher = stronger switching; co-transcriptional cleavage with and without guanine
endpoint: aptazyme ON/OFF ratio

mutant | result
U7A G9C U10G U11C C13G | 1.05
U7A U8A G9U U10C U11A C12G C13U | 1.16
U7A U8G G9U U10A U11G C12A C13A | 1.11
U7A U8A G9A U11C C12U | 1.06
U8C G9U U10A C12A C13A | 1.17
U7G U8C G9U C12U | 4.27
U8A U10A U11G C12G C13G | 1.15
U7G U8G U11G C12U | 1.25
U7G U8C U10G C12G | 1.05
U7A U10A U11A C12G | 1.18
U7C U8A G9U U10C U11C C13G | 1.03
U10G U11A C12G C13G | 1.34
U8A G9C U10A U11G C12A C13A | 1.14
U7A U8A G9A U10G U11G C12U C13U | 1.14
U7A U8G G9U U10A U11A C12A | 1.2
U7G U8A G9C U10A U11C | 1.06
U7C U8G G9U U11A C12G C13G | 1.09
U7G U8C U10G U11A C12G C13U | 1.23
U8C G9U U11C C13A | 1.03
U7A U8A G9C U10A U11G C12U C13U | 1.14
U7A U8C G9C U10A U11C C13A | 1.41
U7A U8A G9A U10G C12G | 1.32
U10C U11C C12A C13U | 1.08
U8G G9C U10C C12U C13U | 1.04
G9A U10A U11G C12G | 1.16
U8C G9A U11A C13U | 1.22
U8A G9C U11A C13U | 1.16
U7C U8A G9C U10C U11G C12U C13G | 1.11
U7A U8A U10C U11C C12U C13G | 1.15
U8C G9C U10C U11C C12G | 1.08
U8A G9U U10C U11A C12A C13U | 1.17
U7A U8G G9C U10C U11G C12A C13A | 1.17
G9U U10C U11A C13U | 1.48
U10G U11G C12U C13A | 1.32
U7C U8C G9U U10G U11A C12U C13A | 1.1
U7A U8A G9C U10C | 1.8
U7G U8C G9A U10C U11A C12A | 1.33
U8C G9U U10G U11C C12G | 1.19
U7C G9C U10G U11G C12U C13G | 1.13
U7C U8C G9A U11C | 1.82
U7G U8A G9C U10A U11C C12U C13U | 1.04
U7C U8A U10A U11C C12A C13U | 1.06
U7G G9U U10A U11A C12U C13U | 1.28
U7G U8C G9C U10A U11C C13A | 1.41
U7C U8A G9U U10A U11G C12G | 1.14
U7C U8C G9A U10C U11A C12U C13A | 1.21
